# Tested on: OVCAR-3 ovarian
# EXPERIMENTAL DETAILS: NCI-60 one-dose screen, 48 h (100 = growth as untreated, 0 = no growth, -100 = all killed)
# EXPERIMENTAL CONTEXT: 10 µM unless noted
About 83,000 compounds went through this panel and 20% of them were active in at least one assay; those are over-represented in the sample as a whole. Calls of active or inactive are those of the source. How the source made its calls: active means growth percent below 10; inactive means the rest.
QUANTITY KIND: growth

Record excerpt, results attached:
[
  {
    "COMPOUND": "COc1ccc(-c2cnnn2-c2cc(OC)c3c(c2)OCO3)cc1",
    "OBSERVED RESULT": "-37.5% (active)"
  },
  {
    "COMPOUND": "CSc1nnc(C2=CC(=O)c3ccccc3C2=O)n1-c1ccccc1",
    "OBSERVED RESULT": "91.6% (inactive)"
  },
  {
    "COMPOUND": "O=C(CCc1nnc2sc(-c3ccc(Cl)cc3Cl)nn12)c1nc2ccccc2[nH]1",
    "OBSERVED RESULT": "-80.6% (active)"
  },
  {
    "COMPOUND": "O=[N+]([O-])c1ccc(Oc2cccc(C(F)(F)F)c2)c([N+](=O)[O-])c1",
    "OBSERVED RESULT": "44.9% (inactive)"
  },
  {
    "COMPOUND": "N#Cc1c2ccccc2c2n1-c1ccccc1OC(c1ccccc1)C2=O (centres undefined)",
    "OBSERVED RESULT": "41.1% (inactive)"
  },
  {
    "COMPOUND": "COc1c(O)cc2oc3cc(O)c(CC=C(C)C)c(O)c3c(=O)c2c1C/C=C(\\C)CCC=C(C)C",
    "OBSERVED RESULT": "62% (inactive)"
  },
  {
    "COMPOUND": "CCCCCCCCCCCCCCCCCC1=NC(C)(C)CN1CCO",
    "OBSERVED RESULT": "-9.27% (active)"
  },
  {
    "COMPOUND": "CC/C(=C\\c1ccc(N(C)C)cc1)c1ccncc1",
    "OBSERVED RESULT": "42.3% (inactive)"
  }
]

Kindly review the next compound as well.
GET /values?readout=growth&item= COC1CC2CCC(C)C(O)(O2)C(=O)C(=O)N2CCCCC2C(=O)OC(C(C)CC2CCC(O)C(OC)C2)CC(=O)C(C)C=C(C)C(O)C(OC)C(=O)C(C)CC(C)/C=C/C=C/C=C1C (centres undefined)
50% (inactive)

* * *

growth values by entry
# Test system: SNB-19 CNS
# EXPERIMENTAL DETAILS: NCI-60 one-dose screen, 48 h (100 = growth as untreated, 0 = no growth, -100 = all killed)
# EXPERIMENTAL CONTEXT: 10 µM unless noted
This is part of a sample that, as a whole, favours compounds with a hit. Of some 83,000 tested, about 20% had one in any assay.
Reply numerically in %, unit not repeated.

Record excerpt, results attached:
[
  {
    "COMPOUND": "NC(=O)N/N=C/c1ccc(Br)o1",
    "UNITS SYMBOL": "%",
    "growth": 111
  },
  {
    "COMPOUND": "O=C(/C=C/c1cccnc1)/C=C/c1cccnc1",
    "UNITS SYMBOL": "%",
    "growth": 21.5
  },
  {
    "COMPOUND": "COc1ccc(-c2c(-c3cc(OC)c(OC)c(OC)c3)noc2N)cc1",
    "UNITS SYMBOL": "%",
    "growth": 38.7
  },
  {
    "COMPOUND": "c1cnc2n[nH]c(Nc3ncnc4c3sc3ncccc34)c2c1",
    "UNITS SYMBOL": "%",
    "growth": 101
  },
  {
    "COMPOUND": "Cc1cc([N+](=O)[O-])c(C)cc1C(=O)O",
    "UNITS SYMBOL": "%",
    "growth": 101
  }
]

GET /values?readout=growth&item= CC[C@]1(O)CC2CN(CCc3c([nH]c4ccccc34)[C@@](C(=O)OC)(c3cc4c(cc3OC)N(C)[C@H]3[C@@](O)(C(=O)OC)[C@H](OC(C)=O)[C@]5(CC)C=CCN6CC[C@]43[C@@H]65)C2)C1 (some centres not stated)
43.8

GET /values?readout=growth&item= `C/C(=C\CCc1ccsc1)CC/C=C(\C)CCCN1CCC(CO)CC1`
52.6

GET /values?readout=growth&item= CN1CCCC1c1cccnc1 (configuration not stated)
105

GET /values?readout=growth&item= ClC1C2CC(c3ccccc32)C1Cl (configuration not stated)
104

GET /values?readout=growth&item= `COc1ccc2c(c1)/C(=C\c1c[nH]c3ccc(F)cc13)C(=O)N2`
93.9

GET /values?readout=growth&item= `CCSc1nnc2n(Cc3ccccc3)c(=O)c3c(C)c(C(N)=O)sc3n12`
108

GET /values?readout=growth&item= `CN1C(=O)/C(=C/c2nc(-c3cccc(F)c3)n3ccccc23)c2ccccc21`
76.8

GET /values?readout=growth&item= `COC(=O)CC1=C(C)/C(=C/c2[nH]c(-c3ccc[nH]3)cc2OC)N=C1C`
32.3

GET /values?readout=growth&item= `Cc1c(C(N)=O)sc2c1c(=O)n(Cc1ccccc1)c1nnc(SCC(=O)Nc3ccc(Cl)cc3)n21`
58

GET /values?readout=growth&item= `CCCCCCCC/C=C\CCCCCCCCOc1ccccc1CC(=O)NCC[N+]1(C)CCCC1`
60.4

GET /values?readout=growth&item= Nc1nc2ncc(CCNc3ccc(C(=O)NC(CCC(=O)O)C(=O)O)cc3)nc2c(=O)[nH]1 (configuration not stated)
111

GET /values?readout=growth&item= `COc1ccc2c(c1)nc(N)c1c3ccccc3cn21`
83.4

GET /values?readout=growth&item= CC(c1ccccn1)C(C)(O)C(C)c1ccccn1 (configuration not stated)
98.9
